test: Examination of variability of fusion temperature of sorbate Form A (DSC); assay type: physicochemical; conditions: DSC 25-220° C. at 10° C. min^−1; batches of sorbate salt Form A
experimentalEndpoint: peak (°C)
Give your result in °C as a bare value.

See these solved cases before continuing.
C/C=C/C=C/C(=O)O.COc1ccc2c3c([nH]c2c1)CCN(C)CC3 [Experiment 6-Sample D1]: 148.0
C/C=C/C=C/C(=O)O.COc1ccc2c3c([nH]c2c1)CCN(C)CC3 [Experiment 6-Sample C1]: 148.8
C/C=C/C=C/C(=O)O.COc1ccc2c3c([nH]c2c1)CCN(C)CC3 [Experiment 6-Sample E1]: 148.8
C/C=C/C=C/C(=O)O.COc1ccc2c3c([nH]c2c1)CCN(C)CC3 [Pattern A1270-20-V2]: 148.8

Proceed to the following item.
Exercise: For C/C=C/C=C/C(=O)O.COc1ccc2c3c([nH]c2c1)CCN(C)CC3 [Experiment 7-Sample A neat] , write its peak.
Key: 146.8
